studySystem: T1, recombinant human CD28/Fc Chimera (human, UniProt P10747 19-152)
T1 construct: bought from R&D Systems; Fc part of the bought chimera not given
experimentNotes: BIAcore, CM5 chip coated with 12500 RU of CD28-Fc
quantityKind: binding result

>>> reading("DOM21-44 (other, VH dAb) VH: EVQLLESGGGLVQPGGSLRLSCAASGFTFARYTMVWVRQAPGKGLEWVSAIHFDGRTTYYADSVKGRFTISRDNSKNTLYLQMNSLRAEDTAVYYCAKNEWASLKHFDYWGQGTLVTVSS")
"binds"
>>> reading("DOM21-22 (other, VH dAb) VH: EVQLLESGGGLVQPGGSLRLSCAASGFTFELYQMGWVRQAPGKGLEWVSTIMPSGNLTYYADSVKGRFTISRDNSKNTLYLQMNSLRAEDTAVYYCAKMWSLNLGFHAAFDYWGQGTLVTVSS")
"binds"
>>> reading("DOM21-18 (other, VK dAb) VL: DIQMTQSPSSLSASVGDRVTITCRASQYIGTSLNWYQQKPGKAPKLLTYQASLLQSGVPSRFSGSGSGTDFTLTISSLQPEDFATYYCQQLALRPMTFGQGTKVEIKR")
"binds"
>>> reading("DOM21-38 (other, VH dAb) VH: EVQLLESGGGLVQPGGSLRLSCAASGFTFILYDMQWVRQAPGKGLEWVSRISANGHDTYYADSVKGRFTISRDNSKNTLYLQMNSLRAEDTAVYYCAKGPHYLFDYWGQGTLVTVSS")
"binds"

These data points were gathered from patent US20130109846A1.
